Just for reference, ChEMBL document CHEMBL1201862 is where these values come from.

# System: NCI-H226
# Test: NCI tumour cell line growth inhibition, 48 h
Calls of active or inactive are those of the source. Rule as the data show it: active = GI50 up to about 1.1 µM and inactive = higher.
Give one outcome, nothing more. List: TRUE (active), FALSE (inactive)

[
  {
    "Compound": "CC(C)N(C(C)C)P(OCCC#N)OC1CC(n2cnc3c(=O)[nH]cnc32)OC1COC(=O)NCCCCCCNC(=O)OC(C)(C)c1ccc(-c2ccccc2)cc1 (centres undefined)",
    "Assigned label": "FALSE"
  }
]

**Query** Which result was noted for this compound in the test: O=C(Nc1ccccc1)c1cc(S(=O)(=O)Nc2n[nH]c(=O)[nH]2)c(SSc2cc(Cl)c(C(=O)Nc3ccccc3)cc2S(=O)(=O)Nc2n[nH]c(=O)[nH]2)cc1Cl
**Result** FALSE

**Query** Which result was noted for this compound in the test: N#CC(C(=O)/C(=N/NC(=O)c1ccccc1O)C(C#N)c1ccc(Cl)cc1)c1ccc(Cl)cc1 (centres undefined)
**Result** FALSE

**Query** Which result was noted for this compound in the test: CC(C)OP(=O)(OC(C)C)c1c(N)n[nH]c1Nc1ccccc1
**Result** FALSE

* * *

# System: 786-0
# Test: NCI tumour cell line growth inhibition, 48 h
Activity calls are given as the source filed them. Cut-off read from the data, not from the text of the source: active = GI50 up to about 1.1 µM and inactive = higher.
Give one outcome, nothing more. List: T = active, F = inactive

Example results:
[
  {
    "Molecule": "N#CCCN(CCC#N)c1ccc(/C=C(/NC(=O)c2cc([N+](=O)[O-])ccc2Cl)C(=O)N=[N+]=[N-])cc1",
    "Assigned label": "F"
  },
  {
    "Molecule": "Nc1nc(=O)c2cc(NCc3ccc(C(=O)NC(CCC(=O)O)C(=O)O)cc3)ccc2[nH]1 (configuration not stated)",
    "Assigned label": "F"
  },
  {
    "Molecule": "O=[N+]([O-])c1cccc2nc3ccccc3c(NCCO)c12",
    "Assigned label": "T"
  },
  {
    "Molecule": "NC(=O)N/N=C/C(/C=N/NC(N)=O)[N+](=O)[O-]",
    "Assigned label": "F"
  },
  {
    "Molecule": "COc1ccccc1NC(=O)CC(=O)n1nc(C)c(/N=N/c2ccccc2F)c1C",
    "Assigned label": "F"
  },
  {
    "Molecule": "COc1cc(/C=C(\\C#N)C(=O)c2ccccc2)ccc1O",
    "Assigned label": "F"
  }
]

**Query** Which result was noted for this molecule in the test: C[N+](C)(C)CC(=O)N/N=C(/Cc1nc2ccc(Cl)cc2nc1O)C1=NS(=O)(=O)c2cc(S(N)(=O)=O)c(Cl)cc2N1
**Result** F

**Query** Which result was noted for this molecule in the test: CO[C@@H]1C=C[C@@]23c4cc5c(cc4C(=O)O[C@H]2CN(C)[C@H]3C1)OCO5
**Result** F

**Query** Which result was noted for this molecule in the test: COc1ccc2c(c1)CCC(OS(=O)(=O)CC13CCC(CC1=O)C3(C)C)C2=O (configuration not stated)
**Result** F

**Query** Which result was noted for this molecule in the test: CC1(C)COC(C23C4C5C2C2C3C4C52I)=N1 (configuration not stated)
**Result** F

**Query** Which result was noted for this molecule in the test: Cc1ccc(NC(=O)C(=O)C(C(=O)/C=C/c2ccccc2)C2OC(=O)c3ccccc32)c(C)c1 (configuration not stated)
**Result** F

**Query** Which result was noted for this molecule in the test: COc1cc(/C=C2/C[C@H]3[C@@H]4CC=C5C[C@@H](O)CC[C@]5(C)[C@H]4CC[C@]3(C)NC2=O)cc(OC)c1OC
**Result** F

* * *

# Test system: NCI-H460
# Test: NCI tumour cell line growth inhibition, 48 h
Calls of active or inactive are those of the source. Cut-off read from the data, not from the text of the source: active = GI50 up to about 1.1 µM and inactive = higher.
Quantity name: GI50

Field: example entries. Status: answers known.
[
  {
    "Molecule": "C1=N\\c2ccc(cc2)/N=C\\c2ccc(cc2)OCc2cccc(n2)COc2ccc/1cc2",
    "GI50": "> 100 µM (inactive)"
  },
  {
    "Molecule": "CCOC(=O)C(NC(=O)CC)(Nc1ccccc1F)C(F)(F)F (stereo not drawn)",
    "GI50": "> 100 µM (inactive)"
  }
]

Now for the molecule whose GI50 we want.
**Query** Please look up its GI50: SC1=NNC2(C(S)=N1)c1ccccc1-c1ccccc12
**Result** > 10 µM (inactive)

* * *

# Test system: K562
# Test: NCI tumour cell line growth inhibition, 48 h
Activity calls are given as the source filed them. Cut-off read from the data, not from the text of the source: active = GI50 up to about 1.1 µM and inactive = higher.
Quick list: GI50 per entry.

Field: example entries. Status: answers known.
[
  {
    "Compound": "Nc1nc[n+](Cc2ccccc2)c2ncn(Cc3ccccc3)c12",
    "GI50": "37.7 µM (inactive)"
  },
  {
    "Compound": "CC1=C/C(=N\\OCC(=O)O)CC(c2ccc(C(C)C)cc2)C1 (stereo unspecified)",
    "GI50": "32.3 µM (inactive)"
  },
  {
    "Compound": "CC(NC(=O)C(CC(=O)OCc1ccccc1)NC(=O)OCc1ccccc1)c1ccccc1 (stereo unspecified)",
    "GI50": "> 100 µM (inactive)"
  },
  {
    "Compound": "CSc1ccc2c(cc1=O)C(NC(=O)c1ccccc1)CCc1cc(O)c(O)c(O)c1-2 (stereo unspecified)",
    "GI50": "10.9 µM (inactive)"
  },
  {
    "Compound": "CCOn1cc(C[C@@]2(O)C(=O)OC3[C@@H](O)CO[C@@]32O)c2ccccc21 (stereo partly specified)",
    "GI50": "> 100 µM (inactive)"
  },
  {
    "Compound": "O=C(CCc1ccc(O)c(O)c1)NCCc1ccc(O)c(O)c1",
    "GI50": "31.7 µM (inactive)"
  }
]

**Query** Please look up its GI50: CC(O)=C1C(=O)CCC1=O
**Result** > 100 µM (inactive)

**Query** Please look up its GI50: OC(C#Cc1ccccc1)(c1ccccc1)c1ccccc1
**Result** 34.3 µM (inactive)

**Query** Please look up its GI50: O=C(C(O)c1cn(Cc2ccccc2)c2ccccc12)N1CCCCC1 (stereo unspecified)
**Result** 30.2 µM (inactive)

**Query** Please look up its GI50: Nn1c(Nc2ccc(S(=O)(=O)Nc3ncccn3)cc2)nnc(/C=C/c2c(O)ccc3ccccc23)c1=O
**Result** 29 µM (inactive)

**Query** Please look up its GI50: COc1nc(C#CCCCC#N)nc(OC)n1
**Result** 17.9 µM (inactive)

* * *

Quick list: GI50 per entry.
# Tested on: SK-OV-3
# Test: NCI tumour cell line growth inhibition, 48 h
The source made the active and inactive calls. Rule as the data show it: active = GI50 up to about 1.1 µM and inactive = higher.

[
  {
    "Compound": "COc1cc(-c2oc3c(OC)c(O)c(OC)c(O)c3c(=O)c2OC)ccc1O",
    "Recorded value": "17.9 µM (inactive)"
  },
  {
    "Compound": "Cc1ccccc1NC(=O)c1c(C)oc2c1C(=O)c1ccccc1C2=O",
    "Recorded value": "> 100 µM (inactive)"
  },
  {
    "Compound": "CC1=CCN(c2ccccn2)OC1c1ccccc1 (stereo not given)",
    "Recorded value": "> 100 µM (inactive)"
  },
  {
    "Compound": "CCCCOc1ccc(S(=O)(=O)/N=C(\\NN)Nc2ccc(Cl)cc2)cc1",
    "Recorded value": "27 µM (inactive)"
  }
]

Now for the compound whose GI50 we want.
**Query** Please look up its GI50: CCOC(=O)/C(C[C@H]1OC(C)(C)O[C@@H]1[C@H]1COC(C)(C)O1)=N/O
**Result** > 100 µM (inactive)

* * *

# System: Malme-3M
# Test: NCI tumour cell line growth inhibition, 48 h
Active and inactive are the calls of the source. No stated cut-off is given here; in the data, active = GI50 up to about 1.1 µM and inactive = higher.
Quantity name: GI50

Field: example entries. Status: answers known.
[
  {
    "Compound": "CC(C)(C)c1cc(COc2cc(COc3ccc(-c4c5c(nc6c4CCc4ccc(-c7c8ccccc8nc8ccccc78)cc4-6)-c4cc(-c6c7ccccc7nc7ccccc67)ccc4CC5)cc3)cc(OCc3cc(C(C)(C)C)cc(C(C)(C)C)c3)c2)cc(C(C)(C)C)c1",
    "GI50": "89.3 µM (inactive)"
  },
  {
    "Compound": "C[C@]12CCC(O)CC1=CC[C@@H]1[C@@H]2CC[C@]2(C)C(O)[C@H](n3ccnc3)C[C@@H]12 (stereo partly drawn)",
    "GI50": "> 100 µM (inactive)"
  }
]

Now for the compound whose GI50 we want.
**Query** Please look up its GI50: COc1ccc(NC2CC(C)N(C(=O)c3ccccc3)O2)cc1 (stereo not drawn)
**Result** > 10 µM (inactive)

* * *

# System: LOX IMVI
# Test: NCI tumour cell line growth inhibition, 48 h
Calls of active or inactive are those of the source. No stated cut-off is given here; in the data, active = GI50 up to about 1.1 µM and inactive = higher.
Quantity name: GI50

Field: example entries. Status: answers known.
[
  {
    "Molecule": "Cc1ccc([N+](=O)[O-])cc1S(=O)(=O)Nc1ccc(C2=NN(S(=O)(=O)c3cc([N+](=O)[O-])ccc3C)C(c3ccccc3O)C2)cc1 (stereo not given)",
    "GI50": "> 100 µM (inactive)"
  },
  {
    "Molecule": "CC1=CCN(c2ccccn2)OC1c1ccccc1 (stereo not given)",
    "GI50": "> 100 µM (inactive)"
  },
  {
    "Molecule": "CC1=CC(=O)C(=CN2C(=O)/C(=C\\c3cccnc3)NC2=S)C(=O)O1",
    "GI50": "> 100 µM (inactive)"
  }
]

**Query** Please look up its GI50: Clc1ccc(CSC2=NCCN2)cc1Cl
**Result** 13.8 µM (inactive)

**Query** Please look up its GI50: CCOn1cc(C[C@@]2(O)C(=O)OC3[C@@H](O)CO[C@@]32O)c2ccccc21 (stereo not given in full)
**Result** > 100 µM (inactive)

**Query** Please look up its GI50: COc1ccc(NC2CC(C)N(C(=O)c3ccccc3)O2)cc1 (stereo not given)
**Result** > 10 µM (inactive)
